Data origin, for the record: patent US8003649B2

molecular target: Androgen Receptor (AR) (Homo sapiens, UniProt P10275, T878A); construct: cell based immuno-fluorescence assay using the LNCaP prostate epithelial cell line; endogenous in cells; host or cells: LNCaP clone FGC (ATCC CRL-1740); test: LNCaP Androgen Receptor Down-regulation Cell Assay (immunofluorescence end point); assay type: cell-based; details: LNCaP prostate carcinoma cells, compound incubation 20-22 hours, 50% reduction of the AR signal; read-out: Androgen Receptor Down-regulation Assay (a) IC50/μM
observed property: DC50

molecule	DC50
COCCN(C)C(=O)COc1ccc(C2CCN(c3ccc4nnc(C(F)(F)F)n4n3)CC2)cc1	0.92 µM

The measured DC50 associated with FC(F)(F)c1cccc(CN2CCN(c3ccc4nnc(C(F)(F)Cl)n4n3)CC2)c1 [Example 346] reads 8.5 µM

For record `FC(F)(F)c1ccnc(OC2CCN(c3ccc4nnc(C(F)(F)F)n4n3)CC2)c1` the listed DC50 is 2.3 µM

The molecule listed as `C[C@H]1CN(Cc2ccncc2)CCN1c1ccc2nnc(C(F)(F)F)n2n1` shows DC50 equal to 6.7 µM

Entry `Cc1cc(COc2cccc(C3CCN(c4ccc5nnc(C(F)(F)F)n5n4)CC3)c2)no1` , DC50 reported as 1.1 µM

Reported DC50 ( `C[C@H]1CN(c2ccc3nnc(C(F)(F)F)n3n2)CCN1Cc1cccnc1` ) = 4.5 µM

For record `FC(F)(F)c1nnc2ccc(N3CCN(Cc4c[nH]c5ccccc45)CC3)cn12` the listed DC50 is 7.5 µM

Entry `COc1cccc(OC2CCN(c3ccc4nnc(C(F)F)n4n3)CC2)c1` — recorded DC50 = 0.85 µM

In plain terms, `N#Cc1cnn(CCOc2ccc(N3CCN(c4ccc5nnc(C(F)(F)F)n5n4)CC3)cc2)c1` has a documented DC50 of 3.5 µM

GET /value?item= Cc1ncccc1CN1CC2CN(c3ccc4nnc(C(F)(F)F)n4n3)CC2C1 (stereo not shown) &field=DC50 returns 1.6 µM

###

Each item that follows carries a reported DC50.
Target: Androgen Receptor (AR) (Homo sapiens, UniProt P10275, T878A)
Construct: cell based immuno-fluorescence assay using the LNCaP prostate epithelial cell line; endogenous in cells; host or cells: LNCaP clone FGC (ATCC CRL-1740)
Sequence (P10275 1-920 T878A): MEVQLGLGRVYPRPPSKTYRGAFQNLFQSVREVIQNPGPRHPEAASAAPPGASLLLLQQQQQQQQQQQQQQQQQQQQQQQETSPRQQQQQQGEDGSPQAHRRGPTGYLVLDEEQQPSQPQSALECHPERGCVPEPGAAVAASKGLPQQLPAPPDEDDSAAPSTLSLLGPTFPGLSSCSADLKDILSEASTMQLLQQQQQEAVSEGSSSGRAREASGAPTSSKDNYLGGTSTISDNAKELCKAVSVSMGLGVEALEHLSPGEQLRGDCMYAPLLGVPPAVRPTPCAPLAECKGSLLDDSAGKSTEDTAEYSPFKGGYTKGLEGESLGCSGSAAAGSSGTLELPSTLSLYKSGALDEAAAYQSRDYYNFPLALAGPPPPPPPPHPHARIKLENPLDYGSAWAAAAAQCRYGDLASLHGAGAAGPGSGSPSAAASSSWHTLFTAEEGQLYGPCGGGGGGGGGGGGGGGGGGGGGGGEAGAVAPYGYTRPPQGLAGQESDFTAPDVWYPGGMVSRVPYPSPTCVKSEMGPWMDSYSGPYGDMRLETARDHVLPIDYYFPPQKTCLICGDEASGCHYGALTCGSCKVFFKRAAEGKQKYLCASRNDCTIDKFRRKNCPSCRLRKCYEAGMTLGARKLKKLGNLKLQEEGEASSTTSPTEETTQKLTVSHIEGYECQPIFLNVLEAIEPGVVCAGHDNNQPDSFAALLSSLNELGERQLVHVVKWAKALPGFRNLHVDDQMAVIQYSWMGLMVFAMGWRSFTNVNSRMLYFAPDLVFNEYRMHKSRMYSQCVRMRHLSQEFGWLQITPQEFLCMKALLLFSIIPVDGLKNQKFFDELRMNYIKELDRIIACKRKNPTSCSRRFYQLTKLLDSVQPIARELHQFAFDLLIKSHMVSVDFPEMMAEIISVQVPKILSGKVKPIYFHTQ
Experiment: LNCaP Androgen Receptor Down-regulation Cell Assay (immunofluorescence end point)
Type: cell-based
Settings: LNCaP prostate carcinoma cells, compound incubation 20-22 hours, 50% reduction of the AR signal; read-out: Androgen Receptor Down-regulation Assay (a) IC50/μM
Respond with the bare value in µM.

Worked cases, answers included:
molecule	DC50 (µM)
Clc1nnc2ccc(N3CCN(C(c4ccccc4)c4ccccc4)CC3)nn12	1.7
FC(F)(F)c1nnc2ccc(N3CCN(c4ccccc4Cl)CC3)nn12	1.4
FC(F)(Cl)c1nnc2ccc(N3CCN(Cc4cccc(Br)c4)CC3)nn12	0.29
O=C(c1ccc(C2CCN(c3ccc4nnc(C(F)(F)F)n4n3)CC2)cc1)N1CCOCC1	2.9
FC(F)(F)c1nnc2ccc(N3C[C@H]4CC[C@@H](C3)N4Cc3cccnc3)nn12	2.6
N#Cc1cccc(O[C@@H]2CCN(c3ccc4nnc(C(F)(F)F)n4n3)C2)c1	2.8
Fc1ccccc1OCC1CCN(c2ccc3nnc(C(F)(F)F)n3n2)CC1	4.9
FC(F)(F)c1ccc(CN2CCCN(c3ccc4nnc(C(F)(F)F)n4n3)CC2)cc1	1.6

Entry under test: COc1cccc(C(=O)N2CC3CN(c4ccc5nnc(C(F)(F)F)n5n4)CC3C2)c1 (stereo not shown) . Its DC50 was 7.6

molecule `CC(C)(C)OCC1CCN(c2ccc3nnc(C(F)(F)F)n3n2)CC1` , DC50 observed: 3.6

The measured DC50 associated with `FC(F)(F)c1nnc2ccc(N3CCN(Cc4ccc(N5CCOCC5)cc4)CC3)nn12` reads 6.6

Reported DC50 ( `N#Cc1ccc(O[C@H]2CCN(c3ccc4nnc(C(F)(F)F)n4n3)C2)cc1` ) = 20

What the record says about `C[C@@H]1CN(c2ccc3nnc(C(F)(F)F)n3n2)CCN1Cc1ccc(F)cc1` : DC50 is 3.3

molecule `FC(F)(F)c1nnc2ccc(N3CCN(Cc4ccc5[nH]ccc5c4)CC3)nn12` , DC50 observed: 1.4

GET /value?item= `FC(F)(F)c1nnc2ccc(N3CCC(Oc4ccc(OCc5cnco5)cc4)CC3)nn12` &field=DC50 returns 0.48

For record `C[C@H]1CN(Cc2cc(F)cc(F)c2)CCN1c1ccc2nnc(C(F)(F)F)n2n1` the listed DC50 is 4.2

DC50 for Fc1cccc(OCC2CN(c3ccc4nnc(C(F)(F)F)n4n3)C2)c1 [Example 490] is 5.9

`FC(F)(F)c1nnc2ccc(N3CCN(Cc4ccc5ccccc5n4)CC3)nn12` has a reported DC50 of 2.1

Lookup result for `COc1ccc(CN2CCN(c3ccc4nnc(C(F)(F)F)n4n3)CC2)cn1` ; measured DC50: 5.1

The value of DC50 measured for the molecule `C[C@@H]1CN(Cc2cccnc2)[C@@H](C)CN1c1ccc2nnc(C(F)(F)F)n2n1` turned out to be 3.7

Value of DC50 reported for the molecule `Fc1ccccc1CN1CCCN(c2ccc3nnc(C(F)(F)F)n3n2)CC1` is 0.92

Entry under test: `FC(F)(F)c1nnc2ccc(N3CCN(Cc4csnn4)CC3)nn12` . Its DC50 was 7.9

The reported value for `N#Cc1ccccc1CN1CCN(c2ccc3nnc(C(F)(F)F)n3n2)CC1` in terms of DC50 is 2.7

`O=C(c1cccc(OC2CCN(c3ccc4nnc(C(F)(F)F)n4n3)CC2)c1)N1CCNCC1` yielded DC50 of 6.6

Please fill in: DC50 reported for COc1ncccc1CN1CC2CN(c3ccc4nnc(C(F)(F)F)n4n3)CC2C1 (stereo not shown) = 2.2

# DC50 (molecule: N#Cc1ccc(CN2CC3CN(c4ccc5nnc(C(F)(F)F)n5n4)CC3C2)cc1 (stereo not shown) ) is 0.53

###

molecular target: Androgen Receptor (AR) (Homo sapiens, UniProt P10275, T878A); construct: cell based immuno-fluorescence assay using the LNCaP prostate epithelial cell line; endogenous in cells; host or cells: LNCaP clone FGC (ATCC CRL-1740); assay: LNCaP Androgen Receptor Down-regulation Cell Assay (immunofluorescence end point); assay type: cell-based; conditions: LNCaP prostate carcinoma cells, compound incubation 20-22 hours, 50% reduction of the AR signal; read-out: Androgen Receptor Down-regulation Assay (a) IC50/μM
Listed next: entries and their corresponding DC50.
Report only the number, with the unit µM understood.

compound	DC50 (µM)
Fc1ccc(CN2CCN(c3ccc4nnc(C(F)F)n4n3)CC2)cc1F [Example 250]	4.9
CN1CCN(CC(=O)Nc2cccc(C3CCN(c4ccc5nnc(C(F)(F)F)n5n4)CC3)c2)CC1 [Example 711]	2.5
CN(C)C(=O)c1ccc(N2CCN(c3ccc4nnc(C(F)(F)F)n4n3)CC2)cc1 [Example 746]	3.3

Query Cn1ccc(CNC(=O)c2cccc(OC3CCN(c4ccc5nnc(C(F)(F)F)n5n4)CC3)c2)n1 [Example 706] yields DC50 of 2.9

Reported DC50 of Fc1cccc(CN2CCN(c3ccc4nnc(C(F)(F)Cl)n4n3)CC2)c1 [Example 345] : 1.1

DC50 for FC(F)(F)c1nnc2ccc(N3CCC(Cc4ccccc4)CC3)nn12 [Example 535] is 1.9

Quick note, DC50 for CS(=O)(=O)c1ccc(CN2CCCN(c3ccc4nnc(C(F)(F)F)n4n3)CC2)cc1 [Example 166] landed at 0.93
